tested on: IGROV1 ovarian; experiment: NCI tumour cell line growth inhibition, 48 h
readout type: TGI

CCN(CC)CCCC(C)Nc1c2ccc(Cl)cc2nc2cc(OC)c(OC)cc12 (stereo unspecified); 9.96 µM
COc1cc([C@H]2c3cc4c(cc3[C@H](NCc3ccc([N+](=O)[O-])cc3)C3COC(=O)[C@H]32)OCO4)cc(OC)c1O (stereo partly specified); > 61.3 µM
COC(=O)c1c(O)ccc2c1c1c(n2Cc2ccccn2)C(=O)c2ccccc2C1=O; > 100 µM
COc1cccc2c1-c1c(OC)cccc1SS2; 41.6 µM
Fc1cccc(CSc2ncnc3c2ncn3C2CCCS2)c1 (stereo unspecified); > 100 µM
CC(C)(c1ccc(Oc2ccc(C#N)c(C#N)c2)cc1)c1ccc(Oc2ccc(C#N)c(C#N)c2)cc1; > 100 µM
NC(CC(=O)Nc1ccc(Cl)cc1)=Nc1ccccc1; > 100 µM
Clc1cccc(N2CCN(CCN3CCc4c([nH]c5ccccc45)C3c3cccnc3)CC2)c1 (stereo unspecified); > 100 µM
CCO/C=C1\N=C(C(Cl)c2ccccc2)OC1=O (stereo unspecified); > 100 µM
COc1ccc2c(c1)c1nc3cc(C)c(C)cc3nc1n2CCN(C)C; 1.97 µM
CSC1(SC)N2Cc3ccccc3N=C2C1(c1ccccc1)c1ccccc1; > 100 µM

---

system: A498 renal; assay: NCI tumour cell line growth inhibition, 48 h; in the data active = GI50 below about 0.43 µM; inactive = the rest
Labels: active, inactive

CC(C)[NH-].CC(C)[NH-].O.O.[Cl][Pt+2][Cl]; inactive
COc1cc(-c2csc(NC(=O)Nc3cc(C(F)(F)F)cc(C(F)(F)F)c3)n2)cc(OC)c1OC; inactive
C[n+]1c2ccccc2c(Nc2ccc(NS(=O)(=O)CCCCN=C(N)N)cc2)c2ccc(N)cc21; active
CCCOC(=O)N[C@H]1CCc2cc(OC)c(OC)c(OC)c2-c2ccc(SC)c(=O)cc21; active
COc1cc(F)cc([C@@H](CO)NC(=O)[C@@H](C)N2Cc3ccc(-c4nc(NC5CCOCC5)ncc4Cl)cc3C2=O)c1; active
Oc1ccc2ccccc2c1C1NN=C(c2ccccc2)S1 (stereo not given); inactive
O=C(O)c1ccc([S-])cc1.[Au+].c1ccc(CN2[CH-]N(Cc3ccccc3)C(c3ccccc3)=C2c2ccccc2)cc1; active
COc1ccc(SC2c3ccc(C)cc3Oc3nc(N)c(C#N)c(N)c32)cc1 (stereo not given); inactive
O=c1oc(-c2ccccc2)cc2cccc(O)c12; inactive
CCN(CC)CCCC(C)Nc1c2ccc(Cl)cc2nc2cc(OC)c(OC)cc12 (stereo not given); inactive

---

Overview of recorded TGI for various compounds
tested on: K-562 leukemia; test: NCI tumour cell line growth inhibition, 48 h
Where a SMILES comes first, the peptide text is derived from it. [ ]: non-standard residue; d: D form. pGlu = O=C1CC[CH](C(=O)O)N1
readout type: TGI

OC(C1CO1)C(O)C1CO1 (configuration not stated); 150 µM
COc1ccc2c3c(c4ccccc4cc13)C(=O)N(CCN(C)CCN)C2=O; 1.32 µM
COc1ccc(OC)c(NCC#N)c1; > 100 µM
O=c1cc(-c2ccccc2)nc(/C=C(\O)c2ccncc2)n1-c1ccccc1; > 100 µM
COc1ccc(-c2nnc(CCCCCCCCc3nnc(-c4ccc(OC)cc4)n3N)n2N)cc1; > 100 µM
COc1cc2cc3c4c(cc(OC)c(OC)c4c2cc1OC)CCN3C(=O)N(C)C; > 100 µM
CCCCCCCC(=O)OCC1OC(n2cc(F)c(=O)[nH]c2=O)C(NC(=O)OCc2ccccc2)C(O)C1O (configuration not stated); > 100 µM
N/C(=N\N=C\c1cc2c(cc1Cl)OCO2)NO; > 100 µM
CC(NC(=O)C(Cc1cnc[nH]1)NC(=O)C1CCC(=O)N1)C(N)=O (stereo not drawn) ([pGlu]-His-Ala-NH2; configuration not given here); > 100 µM
COc1cccc2c1-c1c(OC)cccc1SS2; > 100 µM
N#CCSc1c(-c2ccccc2)c(=O)n(-c2ccccc2)c(=S)n1-c1ccccc1; > 100 µM
COc1ccc(-c2nnc(-c3ccncc3)o2)cc1; > 100 µM
COc1ccc2c(c1)c1nc3cc(C)c(C)cc3nc1n2CCN(C)C; 2.43 µM
CCCC(=O)Nc1cc(/C=C/C(=O)N2CC(CCl)c3c2cc([N+](=O)[O-])c2ccccc32)n(C)c1 (configuration not stated); > 100 µM
CN(C)CCCNc1cnc2cc3ccccc3cc2n1; 70.2 µM
O=c1oc(-c2ccccc2)cc2cccc(O)c12; > 100 µM
Cc1oncc1NC1=CC(=O)C(=O)c2ccccc21; 27 µM
NC(=O)CCC(NC(=O)c1cccc2c(=O)c3ccccc3[nH]c12)C(=O)O (configuration not stated); > 100 µM
N#C/C(=C\Nc1ccccn1)C(=O)c1ccco1; > 100 µM
COc1ccc2nc3cc([N+](=O)[O-])ccc3c(NCCCN(CCO)CCO)c2c1; 4.77 µM
COC(=O)c1c(O)ccc2c1c1c(n2Cc2ccccn2)C(=O)c2ccccc2C1=O; > 100 µM
C[C@H](N)C(=O)N[C@@H]1[C@H]2C(=C(O)C[C@@H](O)[C@@H]2O)C(=O)O[C@@H]1C; > 100 µM
